- System: Blood
- assay-info: Inhibition of eosinophil […] in human whole blood assessed as change in morphology after 4 mins using flow cytometry by leukocyte shape change assay
- Assay type: functional, tissue-based
experimental-readout: IC50 (µM)

Worked examples follow.
molecule	quantity-unit	IC50
CN([C@@H]1CCc2c(CC(=O)O)c3ccccn3c2C1)S(=O)(=O)c1ccc(F)cc1	µM	0.006
CN([C@@H]1CCc2c(c3nccnc3n2CC(=O)O)C1)S(=O)(=O)c1ccc(F)cc1	µM	0.14
CN([C@@H]1CCC2=C(C1)C1C=CC=CC1N2CC(=O)O)S(=O)(=O)c1ccc(F)cc1 (stereo partly drawn)	µM	0.001
CN([C@@H]1CCc2c(c3ccccn3c2CC(=O)O)C1)S(=O)(=O)c1ccc(F)cc1	µM	0.016
CN([C@@H]1CCc2c(c3cccnc3n2CC(=O)O)C1)S(=O)(=O)c1ccc(F)cc1	µM	3.1
O=C(O)CCn1c2c(c3ccccc31)C[C@H](NS(=O)(=O)c1ccc(F)cc1)CC2 [RAMATROBAN]	µM	1.21

P: CN([C@@H]1CCc2c(CC(=O)O)c3ccccc3n2C1)S(=O)(=O)c1ccc(F)cc1 [MK-7246]
Q: CN(C)c1nc(Cc2ccc(NC(=O)c3ccc(C(F)(F)F)cc3)cc2)nc(N(C)C)c1CC(=O)O [BI-671800]
Request: Select the item whose IC50 value is smaller, choosing between P and Q . Please respond with the label that marks your chosen entry.
Result: P
(P: 0.007 µM, Q: 0.744 µM)

---

- System: Blood
- assay-info: Inhibition of eosinophil […] in human whole blood assessed as change in morphology after 4 mins using flow cytometry by leukocyte shape change assay
- Format: functional, tissue-based
experimental-readout: IC50 (nM)

I: Cc1c(Cc2ccc3ccccc3n2)c2cc(F)ccc2n1CC(=O)O [TIMAPIPRANT]
II: CN([C@@H]1CCc2c(CC(=O)O)c3ncccc3n2C1)S(=O)(=O)c1ccc(F)cc1
Request: Pick the one with the larger IC50: I vs II Response format: the label of the selected entry.
Result: II

a: CN([C@@H]1CCc2c(c3ccncc3n2CC(=O)O)C1)S(=O)(=O)c1ccc(F)cc1
b: CN([C@@H]1CCc2c(c3ncccc3n2CC(=O)O)C1)S(=O)(=O)c1ccc(F)cc1
Request: Pick one: a or b . Which has the bigger IC50 number? Pick one and reply with its label.
Result: a

---

This document collects IC50 values reported for Cytochrome P450 2C9 (Homo sapiens).
experimental-readout: IC50 (µM)

I: CN([C@@H]1CCc2c(c3nccnc3n2CC(=O)O)C1)S(=O)(=O)c1ccc(F)cc1
II: CN([C@@H]1CCc2c(c3ccccn3c2CC(=O)O)C1)S(=O)(=O)c1ccc(F)cc1
Request: Field: lower recorded IC50 (choose I or II ) Provide the label of your selected option as the answer.
Result: II
(II: 10 µM, I: 15 µM)

---

- system-name: Prostaglandin D2 receptor 2 (Homo sapiens)
- Sequence (Q9Y5Y4 whole entry): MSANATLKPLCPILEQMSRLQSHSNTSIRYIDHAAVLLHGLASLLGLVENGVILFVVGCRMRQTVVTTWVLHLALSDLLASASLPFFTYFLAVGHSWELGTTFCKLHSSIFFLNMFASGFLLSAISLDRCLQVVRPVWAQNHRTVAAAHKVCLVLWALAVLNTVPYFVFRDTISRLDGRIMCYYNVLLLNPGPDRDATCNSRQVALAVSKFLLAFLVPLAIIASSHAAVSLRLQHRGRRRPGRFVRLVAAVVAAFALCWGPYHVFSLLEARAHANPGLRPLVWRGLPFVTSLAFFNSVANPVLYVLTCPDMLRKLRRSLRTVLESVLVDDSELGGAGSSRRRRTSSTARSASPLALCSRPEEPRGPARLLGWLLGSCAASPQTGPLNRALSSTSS
- assay-info: Displacement of [3H]PGD2 from human prostaglandin D2 receptor
experimental-readout: IC50 (nM)

structure-notation	system-name	quantity-unit	IC50
CN([C@@H]1CCc2c(c3ncccc3n2CC(=O)O)C1)S(=O)(=O)c1ccc(F)cc1	Prostaglandin D2 receptor 2 (Homo sapiens)	nM	6

P: CN([C@@H]1CCc2c(c3cccnc3n2CC(=O)O)C1)S(=O)(=O)c1ccc(F)cc1
Q: O=C(O)CCn1c2c(c3ccccc31)C[C@H](NS(=O)(=O)c1ccc(F)cc1)CC2
R: CN([C@@H]1CCc2c(CC(=O)O)c3ccccn3c2C1)S(=O)(=O)c1ccc(F)cc1
S: CN([C@@H]1CCc2c(c3nccnc3n2CC(=O)O)C1)S(=O)(=O)c1ccc(F)cc1
T: CN([C@@H]1CCc2c(c3ccncc3n2CC(=O)O)C1)S(=O)(=O)c1ccc(F)cc1
Request: Please produce an ascending ranking of these compounds based on IC50. Answer with the labels in sequence, matching the requested order.
Result: R, S, Q, P, T
(R: 18 nM, S: 96 nM, Q: 311 nM, P: 457 nM, T: 860 nM)
